# test summary: PET hydrolysis product formed (TPA+MHET+BHET, UV-Vis) per mg enzyme (mmol/mg enzyme); higher = more PET depolymerisation activity; extreme values may be limits of the assay
# assay context: PET substrate: aFilm; 70 °C; pH 8.5; 24 h
Here, each record is paired with measured PET hydrolysis product formed data.
assay metric: PET hydrolysis product formed

residue_sequence="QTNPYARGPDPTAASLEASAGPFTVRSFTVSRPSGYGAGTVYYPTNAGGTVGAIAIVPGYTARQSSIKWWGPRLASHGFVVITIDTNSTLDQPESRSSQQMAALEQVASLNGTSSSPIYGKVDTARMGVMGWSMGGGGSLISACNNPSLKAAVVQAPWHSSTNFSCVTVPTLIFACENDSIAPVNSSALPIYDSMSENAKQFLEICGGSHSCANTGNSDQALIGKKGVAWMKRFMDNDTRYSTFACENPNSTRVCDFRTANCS [Z1-PETase]" assay_metric="PET hydrolysis product formed" measured_value=0
residue_sequence="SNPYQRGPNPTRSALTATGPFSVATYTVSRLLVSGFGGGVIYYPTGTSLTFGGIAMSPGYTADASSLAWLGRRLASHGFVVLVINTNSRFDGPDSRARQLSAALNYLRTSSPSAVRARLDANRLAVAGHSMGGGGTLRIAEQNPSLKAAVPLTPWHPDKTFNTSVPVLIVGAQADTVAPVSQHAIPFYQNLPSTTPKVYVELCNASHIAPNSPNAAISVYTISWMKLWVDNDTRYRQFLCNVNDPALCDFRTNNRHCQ [LCC-ICCG I6M]" assay_metric="PET hydrolysis product formed" measured_value=0.0775

====

# test summary: terephthalic acid (TPA) released, HPLC; higher = more TPA released; extreme values may be limits of the assay
# assay context: PET substrate: aFilm; 60 °C; pH 7.5; 24 h
Here, each record is paired with measured terephthalic acid data.
assay metric: terephthalic acid (mM)

residue_sequence="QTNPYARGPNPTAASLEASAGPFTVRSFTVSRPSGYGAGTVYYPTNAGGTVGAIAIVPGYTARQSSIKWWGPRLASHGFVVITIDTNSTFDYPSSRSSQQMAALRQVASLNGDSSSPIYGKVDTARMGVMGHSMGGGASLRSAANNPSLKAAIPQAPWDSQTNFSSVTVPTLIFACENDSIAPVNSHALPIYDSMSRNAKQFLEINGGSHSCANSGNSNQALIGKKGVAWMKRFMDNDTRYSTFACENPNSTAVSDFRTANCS [DuraPETase]" measured_value=0.102
residue_sequence="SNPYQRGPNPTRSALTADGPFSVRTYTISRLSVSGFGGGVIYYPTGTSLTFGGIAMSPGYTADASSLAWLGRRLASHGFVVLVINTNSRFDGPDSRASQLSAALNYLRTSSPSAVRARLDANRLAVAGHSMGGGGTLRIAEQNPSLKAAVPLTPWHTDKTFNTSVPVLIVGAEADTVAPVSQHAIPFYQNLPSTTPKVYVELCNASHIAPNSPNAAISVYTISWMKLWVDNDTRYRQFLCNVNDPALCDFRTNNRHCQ [LCC-ICCG RIP]" measured_value=1.96
residue_sequence="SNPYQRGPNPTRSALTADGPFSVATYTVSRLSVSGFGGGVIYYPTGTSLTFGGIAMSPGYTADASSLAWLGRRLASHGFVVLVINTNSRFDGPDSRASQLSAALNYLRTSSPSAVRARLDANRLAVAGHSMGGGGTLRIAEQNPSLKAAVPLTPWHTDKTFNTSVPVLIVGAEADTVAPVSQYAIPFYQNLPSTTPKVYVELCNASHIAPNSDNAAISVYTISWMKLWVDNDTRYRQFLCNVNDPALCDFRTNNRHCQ [LCC-A2]" measured_value=5.52

====

# test summary: PET hydrolysis product formed (TPA+MHET+BHET, UV-Vis) per mg enzyme (mmol/mg enzyme); higher = more PET depolymerisation activity; extreme values may be limits of the assay
# assay context: PET substrate: cryPow; 70 °C; pH 9.5; 24 h
Here, each record is paired with measured PET hydrolysis product formed data.
assay metric: PET hydrolysis product formed

residue_sequence="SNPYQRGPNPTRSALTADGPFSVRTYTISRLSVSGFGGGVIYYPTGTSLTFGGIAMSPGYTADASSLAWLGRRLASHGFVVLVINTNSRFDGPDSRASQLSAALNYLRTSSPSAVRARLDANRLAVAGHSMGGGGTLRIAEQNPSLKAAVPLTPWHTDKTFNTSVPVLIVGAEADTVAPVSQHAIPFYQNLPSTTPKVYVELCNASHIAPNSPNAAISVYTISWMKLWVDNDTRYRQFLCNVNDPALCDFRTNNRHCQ [LCC-ICCG RIP]" assay_metric="PET hydrolysis product formed" measured_value=0.0938
residue_sequence="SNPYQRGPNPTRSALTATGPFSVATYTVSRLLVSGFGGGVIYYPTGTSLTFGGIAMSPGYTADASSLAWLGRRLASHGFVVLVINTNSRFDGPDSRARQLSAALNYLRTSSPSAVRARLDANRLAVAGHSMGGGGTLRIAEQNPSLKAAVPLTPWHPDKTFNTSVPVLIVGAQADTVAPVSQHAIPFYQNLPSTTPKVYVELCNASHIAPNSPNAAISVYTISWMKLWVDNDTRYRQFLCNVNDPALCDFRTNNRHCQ [LCC-ICCG I6M]" assay_metric="PET hydrolysis product formed" measured_value=0.0468

====

# test summary: PET hydrolysis product formed (TPA+MHET+BHET, UV-Vis) per mg enzyme (mmol/mg enzyme); higher = more PET depolymerisation activity; extreme values may be limits of the assay
# assay context: PET substrate: aFilm; 70 °C; pH 6.5; 24 h
assay metric: PET hydrolysis product formed

residue_sequence="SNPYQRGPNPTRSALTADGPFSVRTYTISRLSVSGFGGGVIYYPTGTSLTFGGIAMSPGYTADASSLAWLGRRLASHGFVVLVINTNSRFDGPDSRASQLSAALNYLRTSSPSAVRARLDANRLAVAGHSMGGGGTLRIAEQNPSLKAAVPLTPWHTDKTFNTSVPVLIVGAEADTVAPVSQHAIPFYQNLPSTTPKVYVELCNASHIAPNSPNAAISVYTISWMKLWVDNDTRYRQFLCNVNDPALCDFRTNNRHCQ [LCC-ICCG RIP]" measured_value=0.181
residue_sequence="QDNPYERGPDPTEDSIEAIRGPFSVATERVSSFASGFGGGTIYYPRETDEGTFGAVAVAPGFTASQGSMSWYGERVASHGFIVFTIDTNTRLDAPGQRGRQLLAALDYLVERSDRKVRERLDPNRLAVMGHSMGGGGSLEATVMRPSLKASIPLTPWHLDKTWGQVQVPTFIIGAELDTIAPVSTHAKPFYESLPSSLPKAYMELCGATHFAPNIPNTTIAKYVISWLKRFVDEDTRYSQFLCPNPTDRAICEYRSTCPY [Cut190*SS]" measured_value=0

====

# test summary: PET hydrolysis product formed (TPA+MHET+BHET, UV-Vis) per mg enzyme (mmol/mg enzyme); higher = more PET depolymerisation activity; extreme values may be limits of the assay
# assay context: PET substrate: aFilm; 60 °C; pH 4.5; 2 h
assay metric: PET hydrolysis product formed

residue_sequence="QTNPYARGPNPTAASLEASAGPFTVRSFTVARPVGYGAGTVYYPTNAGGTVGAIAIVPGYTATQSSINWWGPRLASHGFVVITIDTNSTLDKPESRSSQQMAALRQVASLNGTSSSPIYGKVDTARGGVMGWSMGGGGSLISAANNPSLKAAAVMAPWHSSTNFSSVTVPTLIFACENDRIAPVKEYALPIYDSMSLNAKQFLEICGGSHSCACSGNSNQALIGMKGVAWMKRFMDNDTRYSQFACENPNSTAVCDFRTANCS [HotPETase]" assay_metric="PET hydrolysis product formed" measured_value=0
residue_sequence="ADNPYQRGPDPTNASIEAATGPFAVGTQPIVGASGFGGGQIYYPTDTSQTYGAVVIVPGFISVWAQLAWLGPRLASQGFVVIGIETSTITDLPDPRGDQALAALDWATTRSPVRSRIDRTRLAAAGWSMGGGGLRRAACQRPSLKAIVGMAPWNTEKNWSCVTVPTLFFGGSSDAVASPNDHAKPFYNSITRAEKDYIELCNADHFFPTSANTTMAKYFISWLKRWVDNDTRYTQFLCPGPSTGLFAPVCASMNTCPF [CaPETaseM9]" assay_metric="PET hydrolysis product formed" measured_value=0
residue_sequence="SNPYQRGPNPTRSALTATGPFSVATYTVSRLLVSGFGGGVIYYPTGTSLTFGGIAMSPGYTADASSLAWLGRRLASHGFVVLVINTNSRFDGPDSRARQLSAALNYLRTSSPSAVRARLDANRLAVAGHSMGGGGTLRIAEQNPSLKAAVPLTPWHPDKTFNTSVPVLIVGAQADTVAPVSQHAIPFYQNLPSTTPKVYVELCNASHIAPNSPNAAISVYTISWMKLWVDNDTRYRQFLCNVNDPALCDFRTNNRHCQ [LCC-ICCG I6M]" assay_metric="PET hydrolysis product formed" measured_value=0

====

# test summary: PET hydrolysis product formed (TPA+MHET+BHET, UV-Vis) per mg enzyme (mmol/mg enzyme); higher = more PET depolymerisation activity; extreme values may be limits of the assay
# assay context: PET substrate: cryPow; 60 °C; pH 9.5; 2 h
Label yes (1) for high-side PET hydrolysis product formed (at or above 0.04) and no (0) for low-side PET hydrolysis product formed (below it).

residue_sequence="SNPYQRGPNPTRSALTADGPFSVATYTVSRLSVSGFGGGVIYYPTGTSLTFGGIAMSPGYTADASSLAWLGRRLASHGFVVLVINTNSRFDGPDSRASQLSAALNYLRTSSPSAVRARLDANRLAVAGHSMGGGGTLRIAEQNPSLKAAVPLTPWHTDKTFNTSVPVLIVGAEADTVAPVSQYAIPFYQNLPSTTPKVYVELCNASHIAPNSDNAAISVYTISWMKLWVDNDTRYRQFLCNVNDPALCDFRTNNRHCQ [LCC-A2]" discrete_label="yes (1)"
residue_sequence="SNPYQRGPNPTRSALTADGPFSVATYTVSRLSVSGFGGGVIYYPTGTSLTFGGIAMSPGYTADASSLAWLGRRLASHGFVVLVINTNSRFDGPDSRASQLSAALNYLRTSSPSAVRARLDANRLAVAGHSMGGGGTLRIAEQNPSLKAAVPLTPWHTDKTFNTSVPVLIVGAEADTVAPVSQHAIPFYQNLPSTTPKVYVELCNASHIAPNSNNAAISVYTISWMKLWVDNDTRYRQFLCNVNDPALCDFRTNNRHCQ [LCC-ICCG]" discrete_label="no (0)"
residue_sequence="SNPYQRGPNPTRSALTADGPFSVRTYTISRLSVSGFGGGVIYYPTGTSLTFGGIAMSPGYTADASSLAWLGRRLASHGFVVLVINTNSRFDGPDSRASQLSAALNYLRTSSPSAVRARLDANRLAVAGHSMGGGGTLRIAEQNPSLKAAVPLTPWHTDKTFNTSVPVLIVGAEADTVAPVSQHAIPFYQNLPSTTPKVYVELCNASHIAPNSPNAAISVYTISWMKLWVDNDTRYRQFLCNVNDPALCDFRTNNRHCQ [LCC-ICCG RIP]" discrete_label="no (0)"
residue_sequence="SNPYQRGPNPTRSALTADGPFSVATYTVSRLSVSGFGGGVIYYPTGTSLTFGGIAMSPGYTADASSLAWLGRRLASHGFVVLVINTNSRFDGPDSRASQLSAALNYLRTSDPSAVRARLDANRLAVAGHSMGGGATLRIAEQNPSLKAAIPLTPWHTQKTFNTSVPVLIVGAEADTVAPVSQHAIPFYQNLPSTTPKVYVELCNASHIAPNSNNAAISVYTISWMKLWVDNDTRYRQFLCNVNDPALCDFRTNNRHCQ [LCC-ICCG DAQI]" discrete_label="no (0)"
residue_sequence="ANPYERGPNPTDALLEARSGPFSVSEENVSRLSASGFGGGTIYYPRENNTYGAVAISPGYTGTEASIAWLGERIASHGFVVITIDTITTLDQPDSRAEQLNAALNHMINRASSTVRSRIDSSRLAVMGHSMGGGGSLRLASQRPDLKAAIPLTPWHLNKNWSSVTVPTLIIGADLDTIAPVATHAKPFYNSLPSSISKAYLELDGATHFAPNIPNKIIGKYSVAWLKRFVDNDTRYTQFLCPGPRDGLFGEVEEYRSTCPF [TfCut2]" discrete_label="no (0)"
residue_sequence="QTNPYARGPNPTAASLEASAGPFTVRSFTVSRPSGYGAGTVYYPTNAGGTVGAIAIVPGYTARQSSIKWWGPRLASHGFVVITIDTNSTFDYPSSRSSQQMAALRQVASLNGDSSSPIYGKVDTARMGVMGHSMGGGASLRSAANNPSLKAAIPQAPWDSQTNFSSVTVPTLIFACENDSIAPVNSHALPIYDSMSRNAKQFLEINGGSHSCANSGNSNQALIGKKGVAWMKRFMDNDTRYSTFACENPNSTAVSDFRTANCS [DuraPETase]" discrete_label="yes (1)"
residue_sequence="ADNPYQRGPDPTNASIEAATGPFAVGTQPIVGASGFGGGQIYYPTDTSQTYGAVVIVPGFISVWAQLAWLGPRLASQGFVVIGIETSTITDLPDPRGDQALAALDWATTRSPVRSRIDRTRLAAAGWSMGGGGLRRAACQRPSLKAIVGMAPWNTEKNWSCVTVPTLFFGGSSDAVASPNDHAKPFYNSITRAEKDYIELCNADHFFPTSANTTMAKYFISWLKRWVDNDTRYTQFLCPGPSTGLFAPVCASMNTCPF [CaPETaseM9]" discrete_label="yes (1)"
residue_sequence="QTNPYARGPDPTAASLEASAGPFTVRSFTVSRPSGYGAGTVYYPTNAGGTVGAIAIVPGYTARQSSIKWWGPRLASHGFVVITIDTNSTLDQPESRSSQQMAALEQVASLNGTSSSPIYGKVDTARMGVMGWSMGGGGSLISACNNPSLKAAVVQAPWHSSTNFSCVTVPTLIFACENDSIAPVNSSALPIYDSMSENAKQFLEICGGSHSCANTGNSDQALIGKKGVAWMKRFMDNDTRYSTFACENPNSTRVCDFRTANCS [Z1-PETase]" discrete_label="yes (1)"
